assayed-target: human ether-à-go-go-related gene (hERG) potassium channel (human)
assay-explanation: primary screen, population patch clamp on CHO cells stably expressing hERG; higher = less effect of the substance
Out of some 310,000 compounds screened, about 14,000 (4.5%) showed an effect of 50% or more. Effects have a minus sign here. This excerpt belongs to a sample that is enriched for strong results.
endpoint-name: hERG current change (%, negative = inhibition) at 10uM
Put your answer as a value accompanied by its unit after it.

1. O=C(Nc1cccc([N+](=O)[O-])c1)C1COc2ccccc2O1 (stereo not drawn) : -86.3%
2. Cc1nn(-c2ccccc2)c2c1C(c1cccc([N+](=O)[O-])c1)N(c1ccccc1)C(=O)N2 (stereo not drawn) : 11.1%
3. Cc1nn(-c2ccccc2)c2c1C(c1ccc(Cl)cc1)N(c1ccccc1)C(=O)N2 (stereo not drawn) : -64.6%

# input Provide value of hERG current change (%, negative = inhibition) at 10uM for this record tested with human ether-à-go-go-related gene (hERG) potassium channel (human): "COc1cc(CNCc2ccccn2)ccc1OCC(N)=O.Cl"
# output -0.0507%

# input Try this compound too: COc1ccc(/C=N/NC(=O)CNC(=O)C2COc3ccccc3O2)cc1OC (stereo not drawn)
# output -15.7%

# input Another compound to look at: O=C(CNC(=O)C1COc2ccccc2O1)N/N=C\c1ccccc1Cl (stereo not drawn)
# output 4.64%

# input Next: O=C(CNC(=O)C1COc2ccccc2O1)N/N=C\c1ccc(Cl)cc1 (stereo not drawn)
# output -69.4%

# input Next entry: "O=C(CCCOc1ccccc1)Nc1cccc(C(=O)O)c1"
# output 12.6%

# input Same question, COc1ccc(C2SCC(=O)Nc3c2c(C)nn3-c2ccccc2)cc1 (stereo not drawn) this time
# output -7.35%

----------
The entries below are paired with their reported hERG current change (%, negative = inhibition) at 10uM.
assayed-target: human ether-à-go-go-related gene (hERG) potassium channel (human);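 note: peak tail current of the secondary pulse compared with the same well before compound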
assay-explanation: primary screen, population patch clamp on CHO cells stably expressing hERG; higher = less effect of the substance
In all, about 310,000 compounds went through this assay and about 14,000 (4.5%) showed an effect of 50% or more. The effect is printed as a negative number. Shown is part of a subset that was picked to be rich in strong results.
Answer format: numeric, % implied, no suffix.

1. CCCCCCCCn1c(=O)c(C(=O)OC)c(N)c2ccccc21 : 3.02

# input // hERG current change (%, negative = inhibition) at 10uM lookup, key: "CCCC(=O)Nc1cc(C(=O)N2CCC3(CC2)OCCO3)ccc1S(=O)(=O)c1ccc(C)cc1"
# output -14

# input One more molecule: "O=C(Nc1ccc(Br)cc1)C1CCCC1"
# output 9.31

# input Next molecule: CCO.Cn1c2c(c(=O)n(C)c1=O)C1(C(=O)Nc3ccccc31)C(C#N)=C(N)O2 (centres unmarked)
# output 8.3

# input // same read-out, input: "COc1ccc2c(C)nc(Nc3nc(C)cc(C)n3)nc2c1"
# output 5.64

----------
assayed-target: human ether-à-go-go-related gene (hERG) potassium channel (human, UniProt Q12809);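 note: peak tail current of the secondary pulse compared with the same well before compound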
Sequence (Q12809 whole entry, looked up): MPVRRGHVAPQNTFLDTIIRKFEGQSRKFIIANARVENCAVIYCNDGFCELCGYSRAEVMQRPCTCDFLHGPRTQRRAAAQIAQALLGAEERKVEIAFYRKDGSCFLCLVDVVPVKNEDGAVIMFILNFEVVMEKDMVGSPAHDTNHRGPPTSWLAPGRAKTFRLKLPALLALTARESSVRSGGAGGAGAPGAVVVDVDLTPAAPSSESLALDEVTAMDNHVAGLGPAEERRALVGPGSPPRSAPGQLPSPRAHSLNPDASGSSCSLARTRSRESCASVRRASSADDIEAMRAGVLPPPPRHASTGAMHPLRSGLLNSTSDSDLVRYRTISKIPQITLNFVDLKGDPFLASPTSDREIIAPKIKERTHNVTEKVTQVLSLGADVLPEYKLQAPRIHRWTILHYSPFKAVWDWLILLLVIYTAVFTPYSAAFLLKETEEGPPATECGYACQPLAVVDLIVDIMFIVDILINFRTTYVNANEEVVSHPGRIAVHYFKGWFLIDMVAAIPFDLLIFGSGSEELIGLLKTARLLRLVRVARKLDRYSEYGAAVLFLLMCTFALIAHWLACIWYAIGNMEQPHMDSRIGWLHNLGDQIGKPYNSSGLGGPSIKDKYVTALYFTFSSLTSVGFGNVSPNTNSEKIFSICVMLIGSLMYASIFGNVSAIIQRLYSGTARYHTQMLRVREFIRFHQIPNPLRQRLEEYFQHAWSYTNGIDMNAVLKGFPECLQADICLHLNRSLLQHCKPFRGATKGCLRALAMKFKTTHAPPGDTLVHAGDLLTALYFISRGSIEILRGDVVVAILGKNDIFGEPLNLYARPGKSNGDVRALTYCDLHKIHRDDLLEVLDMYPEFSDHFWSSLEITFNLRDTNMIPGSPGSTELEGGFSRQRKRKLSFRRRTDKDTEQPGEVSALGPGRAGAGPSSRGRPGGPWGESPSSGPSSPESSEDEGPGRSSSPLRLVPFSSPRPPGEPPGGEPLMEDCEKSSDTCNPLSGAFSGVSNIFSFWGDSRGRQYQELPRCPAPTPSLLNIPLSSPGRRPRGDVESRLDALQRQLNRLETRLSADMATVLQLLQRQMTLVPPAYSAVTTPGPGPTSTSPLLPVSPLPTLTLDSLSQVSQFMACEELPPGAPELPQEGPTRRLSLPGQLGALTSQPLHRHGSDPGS
assay-explanation: primary screen, population patch clamp on CHO cells stably expressing hERG; higher = less effect of the substance
Among all 310,000 compounds or so, about 14,000 (4.5%) showed an effect of 50% or more. Effects have a minus sign here. The sample holds strong results, similar compounds and a random draw of the others, so the mix is not that of the screen.
Quick reference for hERG current change (%, negative = inhibition) at 10uM among some compounds
Respond numerically; units are % and should not be typed.

1) Cc1cc(C(C)(C)C)cc(C)c1C(=O)O : 0.0126
2) CCCCN1CCN=C1Nc1ccccc1 : 15.2

# input Could you share which hERG current change (%, negative = inhibition) at 10uM value was measured for "O=c1[nH]c(O)c(C=NC2CCN(Cc3ccccc3)CC2)c(=O)[nH]1" ?
# output -31.6

# input Same read-out for "c1ccc(CCCCN2CCN=C2Nc2ccccc2)cc1" ?
# output -42

# input What do you have for "COc1ccc(C(=O)N2CCOCC2)cc1S(=O)(=O)N1CCCc2ccccc21" ?
# output -31.4

# input For "Cc1nn(Cc2ccccc2Cl)c(Cl)c1C(=O)O" then?
# output 8.83

# input Another compound: "Cc1nn(Cc2ccccc2)c(C)c1C(=O)N1CCN(S(=O)(=O)/C=C/c2ccccc2)CC1"
# output -24.8

# input For "c1ccc(NC2=NCCN2CCC2CCCC2)cc1" then?
# output -24

# input Further, for "CCC(=NC1CCN(Cc2ccccc2)CC1)c1c(O)[nH]c(=O)[nH]c1=O" ?
# output -52.4

# input Next: "C=CCn1c(O)c(C(C)=NC2CCN(Cc3ccccc3)CC2)c(=O)[nH]c1=O"
# output -55.7

----------
assayed-target: human ether-à-go-go-related gene (hERG) potassium channel (human, UniProt Q12809);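 note: peak tail current of the secondary pulse compared with the same well before compound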
assay-explanation: primary screen, population patch clamp on CHO cells stably expressing hERG; higher = less effect of the substance
The whole screen tested about 310,000 compounds, of which about 14,000 (4.5%) showed an effect of 50% or more. The effect is printed as a negative number. Shown is part of a subset that was picked to be rich in strong results.
Response key: true (1) means hERG current change (%, negative = inhibition) at 10uM >= -10%; false (0) means hERG current change (%, negative = inhibition) at 10uM < -10%.

Consider the worked cases shown below.
1) CCCCNc1c(-c2ccc(OC)c(SC3CCCCC3)c2)nc2cnccn12.O=C(O)C(F)(F)F : false (0)
2) O=C(N/N=C/c1ccc[nH]1)c1cc(-c2cccs2)nc2ccccc12 : true (1)
3) O=[N+]([O-])c1cccc(/C=N/NC2CCS(=O)(=O)C2)c1 (stereo not shown) : true (1)
4) CC(C)N(C(=O)N1CCC(c2nc(-c3ccncc3)no2)CC1)C(C)C : false (0)

# input Say whether "CSc1cccc(NS(=O)(=O)c2ccc(-c3coc(C)n3)cc2)c1" shows hERG current change (%, negative = inhibition) at 10uM of -10% or more.
# output true (1)

# input Another compound to check: "COc1ccc2[nH]c(=O)c(CN(C(=O)C(C)C)c3ccccc3OC)cc2c1"
# output true (1)

----------
assayed-target: human ether-à-go-go-related gene (hERG) potassium channel (human);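 note: peak tail current of the secondary pulse compared with the same well before compound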
assay-explanation: primary screen, population patch clamp on CHO cells stably expressing hERG; higher = less effect of the substance
Description: Briefly, Chinese hamster ovary (CHO) cells stably expressing the hERG channel were dislodged from tissue culture flasks and dispensed into PPC plates. […] During the recording, background leak currents were estimated by a 100 ms step to -80 mV from an initial holding potential of -70 mV and subtracted from the subsequent current measurement. The campaign was conducted in two phases using slight differences in recording protocol. […]
Among all 310,000 compounds or so, about 14,000 (4.5%) showed an effect of 50% or more. The effect is printed as a negative number. Shown is part of a subset that was picked to be rich in strong results.
Reported hERG current change (%, negative = inhibition) at 10uM values for a set of molecules
Answer with a number only, understood to be in %.

# input What value of hERG current change (%, negative = inhibition) at 10uM has been recorded for this entry: "CCCCCn1c(=O)[nH]c2cc(C(=O)NCCCN3CCCCC3)ccc2c1=O"
# output -33.5

# input Input "Cc1c(S(=O)(=O)NCCc2ccccc2)c(=O)n(C)c(=O)n1C"
# output -1.25

# input And the next one, "CCCNC(=O)OCc1cccnc1Sc1ccc(C)cc1" ?
# output -30

# input Queued: COc1ccc(COCC(O)CN2CCC(CN3C(=O)c4cccc5cccc(c45)C3=O)CC2)cc1OC.Cl (stereo not drawn)
# output -71.5

# input Now try O=C(NC1CCCCCC1)C1CC(=O)N(Cc2ccccc2)C1 (stereo not drawn) .
# output 5.17

# input Could you do the same for "Cc1sc2nc(C(C)C)nc(SCC(=O)N3CCOCC3)c2c1C" , please?
# output -0.958

# input Continue with "CC(=O)Nc1ccc(NC(=O)CSc2ncnc3sc(C)c(C)c23)cc1"
# output 8.58

# input Try this molecule next: "CC(=O)OCN(C#N)c1nc(N(C)C)nc(N(C)C)n1"
# output 5.8

# input Another molecule: "Cc1sc2nc(C(C)C)nc(SCC(=O)NCc3ccco3)c2c1C"
# output 2.82

# input Also "Cc1sc2ncnc(OCC(=O)N3CCN(C(=O)c4ccco4)CC3)c2c1C" ?
# output -30.8

# input Entry "O=C(O)c1cc([N+](=O)[O-])ccc1NCc1ccccn1" please
# output 12.7

# input Would you kindly repeat that for "Nc1nc2ccc(NC(=O)c3ccco3)cc2s1" ?
# output 11.7

# input Repeat with "Cc1sc2nc(C(C)C)nc(SCC(=O)N3CCN(C(=O)c4ccco4)CC3)c2c1C"
# output -72.3

# input Next record, please: Cl.OCCN1CCN(CC(O)COCc2ccc3c(c2)OCO3)CC1 (stereo not drawn)
# output -1.01

# input Now the same for "Cc1sc2ncnc(SCC(=O)Nc3ccc(CN4CCCC4)cc3)c2c1C"
# output -72.6

# input Also "CC(C)C(=O)NNC(=O)CSc1ncnc2c1cnn2-c1ccccc1Cl" ?
# output 9.5

# input Next: "Cc1sc2ncnc(SCC(=O)N3CCCC3)c2c1C"
# output 2.1

# input Now the same for "Cc1nc(SCC(=O)Nc2ccc(CN3CCCC3)cc2)c2c(C)c(C)sc2n1"
# output -35.3
